- target-entity: human IL-21R expressed on cells (human, UniProt Q9HBE5 20-538)
- Sequence (Q9HBE5 20-538 limits assumed): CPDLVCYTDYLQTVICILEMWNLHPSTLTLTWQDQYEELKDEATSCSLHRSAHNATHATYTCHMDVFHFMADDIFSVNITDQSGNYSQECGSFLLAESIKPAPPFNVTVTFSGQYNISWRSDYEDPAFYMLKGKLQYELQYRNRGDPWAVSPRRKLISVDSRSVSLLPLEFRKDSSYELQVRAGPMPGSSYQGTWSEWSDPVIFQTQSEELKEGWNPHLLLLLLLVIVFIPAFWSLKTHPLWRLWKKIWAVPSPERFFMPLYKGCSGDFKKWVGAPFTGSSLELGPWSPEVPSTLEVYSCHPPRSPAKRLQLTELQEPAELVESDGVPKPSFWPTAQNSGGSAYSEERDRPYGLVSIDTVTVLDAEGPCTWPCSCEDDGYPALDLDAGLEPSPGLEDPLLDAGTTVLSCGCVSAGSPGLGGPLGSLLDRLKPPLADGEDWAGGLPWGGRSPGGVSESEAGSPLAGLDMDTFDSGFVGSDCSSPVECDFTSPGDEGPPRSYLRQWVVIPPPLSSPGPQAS
- test-summary: cell-based or functional assay
reported-endpoint: IC50 (nM) in Human IL-21R-BaF3 Neutralization Assay

binder	unit-name	recorded-number
scFv L1 (scFv) scFv: QVQLQESGPGLVKTSETLSLTCAVSGYSISSGYYWGWIRQPPGKGLEWIGSISHTGNTYYNPPLKSRVTISVDTSKNQFSLKLSSVTAADTAVYYCARGGGISRPEYWGKGTLVTVSSGGGGSGGGGSGGGGSALSSELTQDPPVSVALGQTVTLTCQGDSLRTYYASWYQQKSGQAPILLLYGKHKRPSGIPDRFSGSTSGDTASLTITGAQAEDEADYYCASRSVSGNPHVLFGGGTQLTVL	nM	3.7
scFv L14 (scFv) scFv: QVQLQESGPGLVKTSETLSLTCAVSGYSISSGYYWGWIRQPPGKGLEWIGSISHTGNTYYNPPLKSRVTISVDTSKNQFSLKLSSVTAADTAVYYCARGGGISRPEYWGKGTLVTVSSGGGGSGGGGSGGGGSALSSELTQDPPVSVALGQTVTLTCQGDSLRTYYASWYQQKSGQAPILLLYGKHKRPSGIPDRFSGSTSGDTASLTITGAQAEDEADYYCMARSRKGNPHVLFGGGTQLTVL	nM	3.2
scFv L13 (scFv) scFv: QVQLQESGPGLVKTSETLSLTCAVSGYSISSGYYWGWIRQPPGKGLEWIGSISHTGNTYYNPPLKSRVTISVDTSKNQFSLKLSSVTAADTAVYYCARGGGISRPEYWGKGTLVTVSSGGGGSGGGGSGGGGSALSSELTQDPPVSVALGQTVTLTCQGDSLRTYYASWYQQKSGQAPILLLYGKHKRPSGIPDRFSGSTSGDTASLTITGAQAEDEADYYCVTRNRYGNPHVLFGGGTQLTVL	nM	11
scFv L24 (scFv) scFv: QVQLQESGPGLVKTSETLSLTCAVSGYSISSGYYWGWIRQPPGKGLEWIGSISHTGNTYYNPPLKSRVTISVDTSKNQFSLKLSSVTAADTAVYYCARGGGISRPEYWGKGTLVTVSSGGGGSGGGGSGGGGSALSSELTQDPPVSVALGQTVTLTCQGDSLRTYYASWYQQKSGQAPILLLYGKHKRPSGIPDRFSGSTSGDTASLTITGAQAEDEADYYCIARSNKGNPHVLFGGGTQLTVL	nM	2.4
scFv L20 (scFv) scFv: QVQLQESGPGLVKTSETLSLTCAVSGYSISSGYYWGWIRQPPGKGLEWIGSISHTGNTYYNPPLKSRVTISVDTSKNQFSLKLSSVTAADTAVYYCARGGGISRPEYWGKGTLVTVSSGGGGSGGGGSGGGGSALSSELTQDPPVSVALGQTVTLTCQGDSLRTYYASWYQQKSGQAPILLLYGKHKRPSGIPDRFSGSTSGDTASLTITGAQAEDEADYYCVSRSAKGNPHVLFGGGTQLTVL	nM	3.1
scFv L18 (scFv) scFv: QVQLQESGPGLVKTSETLSLTCAVSGYSISSGYYWGWIRQPPGKGLEWIGSISHTGNTYYNPPLKSRVTISVDTSKNQFSLKLSSVTAADTAVYYCARGGGISRPEYWGKGTLVTVSSGGGGSGGGGSGGGGSALSSELTQDPPVSVALGQTVTLTCQGDSLRTYYASWYQQKSGQAPILLLYGKHKRPSGIPDRFSGSTSGDTASLTITGAQAEDEADYYCVTRSVKGNPHVLFGGGTQLTVL	nM	3.7
